measured.on: T1, isoform 165 of human VEGF-A (Peprotech) (human, UniProt P15692-4 27-191)
T1 construct: also called human VEGF165; VEGF 165
assay.name: ELISA; antigen coated 1 µg/ml; Fab 10 µg/mL; 9E10-peroxidase
recorded.metric: absorbance at 492 nm
# output: bare number, no unit

{"binder": "Fab L3H6 (Fab, V domains shown, The entries are the mature chains without the six histidines and c-myc that the heavy chain carried at its C-terminus in the assay) VH: QVQLVQSGAEVKKPGESLKISCKGSGYSFTSYWIGWVRQMPGKGLEWMGIIYPGDSDTRYSPSFQGQVTISADKSISTAYLQWSSLKASDTAMYYCARQGTHNRKIWGQGTMVTVSS VL: QAVVTQEPSLTVSPGGTVTLTCASSTGAVTSGNYPNWFQQRPGQPPRALIYSTSNKHSWTPARFSGSLLGGKAALTLSGAQPEDEAEYYCRLSYDLARPVFGGGTKLTVLG", "absorbance at 492 nm": 2.46}
{"binder": "Fab L3H7 (Fab, V domains shown, Entries lack the six histidines and c-myc of the heavy chain) VH: QVQLVQSGAEVKKPGESLKISCKGSGYSFTSYWIGWVRQMPGKGLEWMGIIYPGDSDTRYSPSFQGQVTISADKSISTAYLQWSSLKASDTAMYYCARPYATDTRIWGQGTMVTVSS VL: QAVVTQEPSLTVSPGGTVTLTCASSTGAVTSGNYPNWFQQRPGQPPRALIYSTSNKHSWTPARFSGSLLGGKAALTLSGAQPEDEAEYYCRLSYDLARPVFGGGTKLTVLG", "absorbance at 492 nm": 2.2}
{"binder": "Fab L3H5 (Fab, V domains shown, Entries lack the six histidines and c-myc of the heavy chain) VH: QVQLVQSGAEVKKPGESLKISCKGSGYSFTSYWIGWVRQMPGKGLEWMGIIYPGDSDTRYSPSFQGQVTISADKSISTAYLQWSSLKASDTAMYYCARLVHRYRAIWGQGTMVTVSS VL: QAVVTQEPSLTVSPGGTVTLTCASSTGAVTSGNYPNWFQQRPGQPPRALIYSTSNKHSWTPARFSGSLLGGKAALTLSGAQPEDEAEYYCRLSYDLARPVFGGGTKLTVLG", "absorbance at 492 nm": 2.35}

Proceeding to the next binder to report its absorbance at 492 nm.
// Fab 2H1-32 (Fab, V domains shown) VH: QVQLVQSGAEVKKPGESLKISCKGSGYSFTSYWIGWVRQMPGKGLEWMGIIYPGDSDTRYSPSFQGQVTISADKSISTAYLQWSSLKASDTAMYYCARLVVRDTEIWGQGTMVTVSS VL: QAVVTQEPSLTVSPGGTVTLTCASSIGAVTSGNYPNWFQQRPGQPPRALIYSTSNKHSWTPARFSGSLLGGKAALTLSGAQPEDEAEYYCLLSYSGARPVFGGGTKLTVLG : absorbance at 492 nm value = 0.601
